Target: T1, lactate dehydrogenase (LDH)
T1 construct: Coated at 500 ng/well as non-specific target; also called LDH polypeptide
Assay: phage ELISA
Description: For analysis of individual target binders, colonies were picked and phage prepared as described above using helper phage, M13KO7. Ninety-six-well microtiter plates were coated with 500 ng/well of specific target protein, 500 ng/well lactate dehydrogenase (LDH) irrelevant or non-specific target, 500 ng/well of positive control antibody raised against ETAG, and negative control of non-fat milk powder-PBS 2% at 4° C. overnight. […] Plates were analyzed at 405 nm. […]
I'd be grateful if you could share measured LDH (OD) for these entries.
Numbers only, in OD.

Here are 2 binders. What values of LDH (OD) were reported for them?
1. GITGLFCLCLRSSQSIAAAGAPVPYPDPLEPRP [DGI-2-20F-P0P-D6]
2. WGCVFRQWASGSGAGCARRHAAAGAPVPYPDPLEPRP [DGI-2-20R-3-D9]

[1, 1]

// sample MSSTAWTDRILQRGIGLGPVAAAGAPVPYPDPLEPRP [DGI-2-20R-4-F1212] , its LDH (OD) was 1.2
